Assay Target: malonyl-CoA decarboxylase prepared from rat heart (Rattus norvegicus)
Sequence (Q920F5 39-492): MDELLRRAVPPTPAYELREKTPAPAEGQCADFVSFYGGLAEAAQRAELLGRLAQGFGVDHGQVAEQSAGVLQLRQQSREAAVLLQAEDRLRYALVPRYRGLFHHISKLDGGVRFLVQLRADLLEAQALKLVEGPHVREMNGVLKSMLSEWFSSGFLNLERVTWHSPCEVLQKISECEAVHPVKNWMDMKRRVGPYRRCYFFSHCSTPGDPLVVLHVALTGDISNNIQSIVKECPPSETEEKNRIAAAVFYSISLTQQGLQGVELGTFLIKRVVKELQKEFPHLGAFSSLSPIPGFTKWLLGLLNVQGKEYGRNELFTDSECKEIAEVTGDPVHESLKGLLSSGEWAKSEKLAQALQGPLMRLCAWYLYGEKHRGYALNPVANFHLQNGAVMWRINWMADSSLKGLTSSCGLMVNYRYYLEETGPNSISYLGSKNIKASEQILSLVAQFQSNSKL
Provide the reported pIC50 of each item.
The quantity pIC50 is defined as the negative base-10 logarithm of the molar concentration.

Prompt: # pIC50 lookup, item CCCCOc1ccc(NC(=O)N(CC)c2ccc3nc(S)sc3n2)cc1 [Table 7; entry 1]
Completion: 7.21

Prompt: Quick one: pIC50 for CC(C)N(C(=O)c1ccc(C(F)(F)F)cc1)c1ccc2nc(S)sc2n1 [Table 8; entry 7] ?
Completion: 7.60

Prompt: Fill in: pIC50 of CCN(C(=O)COc1ccccc1)c1ccc2nc(S)sc2n1 [Table 8; entry 1] is ___
Completion: 7.01

Prompt: Look up pIC50 for this molecule: CC(C)N(C(=O)OCCOCc1ccccc1)c1ccc2nc(S)sc2c1 [Table 4; entry 6]
Completion: 5.79

Prompt: I'd like to know its pIC50. The molecule in question is CC(C)N(C(=O)Oc1ccc(Cl)cc1)c1ccc2nc(S)sc2c1 [Table 4; entry 4]
Completion: 7.12

Prompt: Which value of pIC50 has been reported for CC(C)N(C(=O)Nc1ccc(C(F)(F)F)cc1)c1ccc2nc(S)sc2c1 [Table 3; entry 16] in the records?
Completion: 7.64
